system: Caco-2; test: cell viability relative to DMSO; higher = less toxic; conditions: 72 h; 100 nM
measurementName: cell viability
Please format your answer as a value with the unit trailing.

compound	system	cell viability
CC(=O)Oc1cc(C(F)(F)F)ccc1C(=O)O [triflusal]	Caco-2	90%
CO[C@H]1/C=C\C=C(/C)C(=O)NC2=CC(=O)C(NCCN(C)C)=C(C[C@@H](C)C[C@H](OC)[C@H](O)[C@@H](C)/C=C(\C)[C@@H]1OC(N)=O)C2=O [alvespimycin]	Caco-2	82.9%
CC(C)c1cc(C(=O)N2Cc3ccc(CN4CCN(C)CC4)cc3C2)c(O)cc1O	Caco-2	85.8%

// below: cell viability requested for another compound
Challenge: Could you tell me which cell viability is on file for COc1ccc(-c2ccc(=N)n(CCCC(=O)O)n2)cc1 [gabazine] ?
Response given: 99.9%

----------
system: Caco-2; assay: relative viability EC50 (midpoint between 100% and the lowest measured viability); higher = less toxic; conditions: 72 h
measurementName: relative viability EC50

Completed entries (count: 2):
molecule	relative viability EC50
CSc1ccc(C(=O)N[C@@H]2CCCC[C@@H]2NC(=O)CNC(=O)c2cc(C(F)(F)F)ccc2NC(=O)NC(C)C)cc1	> 10 µM
Cc1ccc(C(=O)Nc2ccc(S(=O)(=O)O)c3cc(S(=O)(=O)O)cc(S(=O)(=O)O)c23)cc1NC(=O)c1cccc(NC(=O)Nc2cccc(C(=O)Nc3cc(C(=O)Nc4ccc(S(=O)(=O)O)c5cc(S(=O)(=O)O)cc(S(=O)(=O)O)c45)ccc3C)c2)c1	> 10 µM

// below: relative viability EC50 requested for another molecule
Challenge: Could you tell me which relative viability EC50 is on file for COc1ccccc1OC(=O)C(C)c1ccc(CC(C)C)cc1 (stereo not drawn) [metoxibutropate] ?
Response given: > 10 µM

----------
system: Caco-2; assay: drug sensitivity score (DSS) for viability; higher = more toxic; extreme values may be limits of the assay; settings: 72 h
measurementName: drug sensitivity score
Please reply with the number alone, leaving off any unit.

Completed entries (count: 2):
                                   compound  reported
0  O=C(c1ccc(OCCCc2c[nH]cn2)cc1)C1CC1 [ciproxifan]         0
1  O=C(O)CC/C=C\C[C@@H]1CO[C@H](c2ccccc2Cl)O[C@@H]1c1ccccc1O (racemic)         0

Challenge: # returns recorded drug sensitivity score (system: Caco-2) for c1cc(-c2cnn3cc(-c4ccc(OCCN5CCCCC5)cc4)cnc23)ccn1 [dorsomorphin]
Response given: 3

Challenge: # returns recorded drug sensitivity score (system: Caco-2) for c1ccc(CC2=NCCN2)cc1 [tolazoline]
Response given: 0

----------
The following compounds are listed with their measured cell viability values.
test system: Caco-2; assay: cell viability relative to DMSO; higher = less toxic; conditions: 72 h; 100 nM
Counter-ions that a name gives are not always drawn.
Write down the numeric answer in % and omit the unit.

Completed entries (count: 2):
>>> print(df.to_string())
                                   compound  measurementname  reported
0  CC(C)NCC(O)c1ccc2ccccc2c1 (stereo not drawn)   cell viability      87.4
1                CCN(CC)CC(=O)Nc1c(C)cccc1C   cell viability      90.8

// below: cell viability requested for another compound
Challenge: Could you tell me which cell viability is on file for CO/N=C(\C(=O)N[C@@H]1C(=O)N2C(C(=O)O)=C(Cn3ccc(=N)n3CCO)CS[C@H]12)c1csc(N)n1 [Cefoselis sulfate] ?
Response given: 90.7
